Listed here: items and their measured Ki.
# tested-system: human GPR39 receptor (Homo sapiens)
# Construct: PC3 Cells, Expressing the Endogenous Human GPR39 Receptor; endogenous in cells
# run-description: Measurement of intracellular calcium response in PC3 cells (FLIPR), antagonism of the C3 agonist response
# stated-conditions: functional pKi (modified Cheng-Prusoff), inhibition of the C3 (TC-G 1008) response at EC90, 30 μM ZnCl2, read-out: fpKi activity

Here's what some known entries look like.
Challenge: Reported Ki, molecule CN1CCN(C(=O)c2ccc(NC(=O)C3CC3)nc2N2CCCCC2)C(c2ccccc2)C1 (racemic) : ____
Response given: 0.0631 to 0.251 µM

Challenge: Reported Ki, molecule CN1CCN(C(=O)c2ccc(NC(=O)C3CC3)nc2N2CC3CC3C2)C(c2ccccc2)C1 (racemic) : ____
Response given: 0.0631 to 0.251 µM

Challenge: Reported Ki, molecule O=C(Nc1ccc(C(=O)N2CCN3CCCC3C2)c(N2CCCCCC2)c1)C1CC1 (centres unmarked) : ____
Response given: 0.316 to 1 µM

Challenge: Reported Ki, molecule O=C(Nc1ccc(C(=O)N2CCOCC2)c(N2CCCCCC2)c1)C1CC1 : ____
Response given: 0.316 to 1 µM

Challenge: Reported Ki, molecule CC(C)C1CN(C)CCN1C(=O)c1ccc(NC(=O)C2CC2)cc1N1CCCCCC1 (centres unmarked) : ____
Response given: 1.26 to 6.31 µM

Challenge: Reported Ki, molecule O=C(Nc1ccc(C(=O)N2CCc3ccccc3C2)c(N2CCCCCC2)c1)C1CC1 : ____
Response given: 0.316 to 1 µM

Challenge: Reported Ki, molecule CN1CCN(C(=O)c2ccc(NC(=O)C3CC3)nc2N2CCCC2)C(c2ccccc2)C1 (single isomer, unassigned) [Example 149a] : ____
Response given: 0.0631 to 0.251 µM

Now for a further molecule.
Challenge: Reported Ki, molecule CCCN1CCN(C(=O)c2ccc(NC(=O)C3CC3)cc2-c2ccccn2)CC1 : ____
Response given: 0.316 to 1 µM

====

Listed here: items and their measured Ki.
# tested-system: human GPR39 receptor (Homo sapiens, UniProt O43194)
# Construct: PC3 Cells, Expressing the Endogenous Human GPR39 Receptor; endogenous in cells
# Sequence (O43194 whole entry): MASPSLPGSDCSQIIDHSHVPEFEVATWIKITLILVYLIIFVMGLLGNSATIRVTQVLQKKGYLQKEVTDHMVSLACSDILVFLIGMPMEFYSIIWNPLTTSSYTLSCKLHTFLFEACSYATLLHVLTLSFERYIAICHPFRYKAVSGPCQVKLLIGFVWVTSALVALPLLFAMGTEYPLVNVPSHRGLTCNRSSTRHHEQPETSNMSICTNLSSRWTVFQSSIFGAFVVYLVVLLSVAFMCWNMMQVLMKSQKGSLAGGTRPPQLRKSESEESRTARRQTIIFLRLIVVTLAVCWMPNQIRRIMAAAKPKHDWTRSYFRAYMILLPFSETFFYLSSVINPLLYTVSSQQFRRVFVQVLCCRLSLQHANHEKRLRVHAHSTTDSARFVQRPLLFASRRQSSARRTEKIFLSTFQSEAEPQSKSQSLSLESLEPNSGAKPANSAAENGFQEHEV
# run-description: Measurement of intracellular calcium response in PC3 cells (FLIPR), antagonism of the C3 agonist response
# stated-conditions: functional pKi (modified Cheng-Prusoff), inhibition of the C3 (TC-G 1008) response at EC90, 30 μM ZnCl2, read-out: fpKi activity

Here's what some known entries look like.
Challenge: Query for human GPR39 receptor (Homo sapiens, UniProt O43194): what Ki does the record show for O=C(Nc1ccc(C(=O)N2CCN(Cc3ncco3)CC2c2ccccc2)c(N2CCCCCC2)c1)C1CC1 (stereo not shown) [Example 83] ?
Response given: 63.1 to 251 nM

Challenge: Query for human GPR39 receptor (Homo sapiens, UniProt O43194): what Ki does the record show for O=C(Nc1ccc(C(=O)N2CCN(Cc3cc[nH]n3)CC2)c(N2CCCCCC2)c1)C1CC1 [Example 23] ?
Response given: 316 to 1000 nM

Challenge: Query for human GPR39 receptor (Homo sapiens, UniProt O43194): what Ki does the record show for Cc1noc(-c2ccc(C(=O)N3CCC(C(F)(F)F)CC3)c(N3CCCC3)c2)n1 [Example 152] ?
Response given: 316 to 1000 nM

Challenge: Query for human GPR39 receptor (Homo sapiens, UniProt O43194): what Ki does the record show for O=C(Nc1ccc(C(=O)N2CCSCC2c2ccccc2)c(N2CCCC2)c1)C1CC1 (stereo not shown) [Example 58] ?
Response given: 63.1 to 251 nM

Challenge: Query for human GPR39 receptor (Homo sapiens, UniProt O43194): what Ki does the record show for O=C(Nc1ccc(C(=O)N2CCCCC2c2nnnn2Cc2ccccc2)c(N2CCCCCC2)c1)C1CC1 (stereo not shown) [Example 54] ?
Response given: 63.1 to 251 nM

Challenge: Query for human GPR39 receptor (Homo sapiens, UniProt O43194): what Ki does the record show for CN1CCN(C(=O)c2ccc(NC(=O)C3CC3)cc2N2CCC3(COC3)C2)C(c2ccccc2Cl)C1 (racemic) [Example 211] ?
Response given: 63.1 to 251 nM

Challenge: Query for human GPR39 receptor (Homo sapiens, UniProt O43194): what Ki does the record show for C[C@@H]1C[C@H](C)CN(c2cc(NC(=O)C3CC3)ccc2-c2ncc3n2CCN(C)C3)C1 [Example 104b] ?
Response given: 63.1 to 251 nM

Challenge: Query for human GPR39 receptor (Homo sapiens, UniProt O43194): what Ki does the record show for CN1CCN(C(=O)c2ccc(NC(=O)C3CC3)cc2N2CCC(C(F)(F)F)C2)C(c2ccccc2)C1 (single isomer, unassigned) [Example 199b] ?
Response given: 316 to 1000 nM

More entries:
Challenge: Query for human GPR39 receptor (Homo sapiens, UniProt O43194): what Ki does the record show for O=C(NCc1ccccn1)c1ccc(NC(=O)C2CC2)cc1N1CCCCCC1 [Example 42] ?
Response given: 316 to 1000 nM

Challenge: Query for human GPR39 receptor (Homo sapiens, UniProt O43194): what Ki does the record show for CSc1nnc(-c2ccc(NC(=O)C3CC3)cc2N2CCCCCC2)n1C [Example 109] ?
Response given: 1260 to 6310 nM

Challenge: Query for human GPR39 receptor (Homo sapiens, UniProt O43194): what Ki does the record show for Cc1nnc(-c2ccc(C(=O)N3CCC(F)(F)CC3)c(-n3ccc(C4CC4)n3)c2)[nH]1 [Example 209] ?
Response given: ≤ 50.1 nM

Challenge: Query for human GPR39 receptor (Homo sapiens, UniProt O43194): what Ki does the record show for O=C(Nc1ccc(C(=O)N2CCN(Cc3ncco3)CC2)c(N2CCCCCC2)c1)C1CC1 [Example 24] ?
Response given: 63.1 to 251 nM

Challenge: Query for human GPR39 receptor (Homo sapiens, UniProt O43194): what Ki does the record show for CNC(=O)N1CCN(C(=O)c2ccc(NC(=O)C3CC3)cc2N2CCCC2)C(c2ccccc2)C1 (stereo not shown) [Example 217] ?
Response given: 316 to 1000 nM

Challenge: Query for human GPR39 receptor (Homo sapiens, UniProt O43194): what Ki does the record show for CCCN1CCN(C(=O)c2ccc(NC(=O)C3CC3)nc2N2CCCCCC2)CC1 [Example 108] ?
Response given: 63.1 to 251 nM

Challenge: Query for human GPR39 receptor (Homo sapiens, UniProt O43194): what Ki does the record show for CN1CCN(C(=O)c2ccc(NC(=O)C3CC3)cc2N2CCCC2)C(c2ccccc2F)C1 (single isomer, unassigned) [Example 84a] ?
Response given: 63.1 to 251 nM

Challenge: Query for human GPR39 receptor (Homo sapiens, UniProt O43194): what Ki does the record show for O=C(Nc1ccc(C(=O)N2CCn3cccc3C2)c(N2CCCCCC2)c1)C1CC1 [Example 39] ?
Response given: 63.1 to 251 nM
